Tested on: 156681-154-R-J1-PDC tumor spheroids, viability % test/control;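 also: spheroids exposed to compounds for 7 days before the endpoint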
Assay protocol: Anticancer human tumor 156681-154-R-J1-PDC patient-derived melanoma cell line growth inhibition [TAK]; active = viability on the fitted dose curve at most 10% of control; inactive = the rest
Conditions used: second compound 30 µM; first compound 0.01 µM; spheroids with HUVEC and MSC
Description: Combinatorial screen of targeted agents with TAK-243 and ipatasertib in multi-cell type tumor spheroids […] Compounds. […] If the clinical Cmax for an agent had not been determined, the highest concentration tested was 10 microM. NCI60 Cell Culture. […] The optimal seeding densities for each of the cell lines at each time point assessed were determined prior to performing the concentration response studies. […]
Result category, one only: true (1) = active, false (0) = inactive

Q) # outcome recorded in this test, key = COc1c(OCCCN2CCOCC2)ccc2c3n(c(=NC(=O)c4cnc(N)nc4)nc12)CCN3 + CC(C)NCC(C(=O)N1CCN(c2ncnc3c2C(C)CC3O)CC1)c1ccc(Cl)cc1
A) false (0)
